Consider the following compounds and their measured inhibition rate of AII induced increase in blood pressure, 24 hrs after administration readings.
System: angiotensin II induced pressor response
Assay: Inhibition of angiotensin II induced pressor response in rats
Format: in vivo, Male Sprague-Dawley rats
Settings: AII 100 ng/kg i.v., test compound p.o. at dose equimolar to compound A (0.10-0.14 mg/kg), in 0.5% methylcellulose, mean±SEM
Marks after values point to notes of the source that are not given here.

* CCOc1nc2cccc(C(=O)OC)c2n1Cc1ccc(-c2ccccc2-c2noc(=O)[nH]2)cc1 | 0.8 ± 4.9**

What does the data say about its inhibition rate of AII induced increase in blood pressure, 24 hrs after administration? Entry: CCOc1nc2cccc(C(=O)OC(C)OC(=O)OC3CCCCC3)c2n1Cc1ccc(-c2ccccc2-c2noc(=O)[nH]2)cc1 (stereo not shown)
9.3 ± 8.6*

What value of inhibition rate of AII induced increase in blood pressure, 24 hrs after administration has been reported for the following compound? CCOc1nc2cccc(C(=O)OCc3oc(=O)oc3C)c2n1Cc1ccc(-c2ccccc2-c2noc(=O)[nH]2)cc1.[K]
32.7 ± 4.6

What value of inhibition rate of AII induced increase in blood pressure, 24 hrs after administration has been recorded for this entry: CCOc1nc2cccc(C(=O)OCOC(C)=O)c2n1Cc1ccc(-c2ccccc2-c2noc(=O)[nH]2)cc1
10.9 ± 5.6*
